- assay name: Therapeutic index, ratio of CC50 for african green monkey Vero cells to IC50 for Herpes simplex virus 2 by MTT assay
- Type: cell-based
- condition info: read-out: Ratio CC50/IC50
result type: selectivity ratio
Number only, no unit.

# count of solved cases: 3
> print(dat)
                                test.smiles  recorded.number
1  CC1(C)CCC[C@@]2(C)[C@H]1C[C@@H](O)[C@@H]1CC(=O)[C@]3(C)CC[C@]12C3             0.66
2  CC1(C)CCC[C@@]2(C)[C@H]1CC[C@H]1CC(=O)[C@]3(C)CC[C@]12C3             0.81
3  CC1(C)CCC[C@@]2(C)[C@H]1CC[C@H]1C[C@@H](O)[C@]3(C)CC[C@]12C3             1.25

Next item in the queue.
Sure, the documented selectivity ratio for CC1(C)CCC[C@@]2(C)[C@H]1CCC1=CC(=O)[C@]3(C)CC[C@]12C3 is 0.72

====

// CC100 lookup, one value per entry
- System: Vero
- assay name: Cytotoxicity against african green monkey Vero cells by end-point titration technique
- Type: cell-based
- condition info: chlorocebus sabaeus

Sure, the documented CC100 for CC1(C)CCCC2=C1CC[C@@]13CC[C@](C)(C[C@@]21C)C(=O)C3 is 35 µg/mL

Sure, the documented CC100 for CC1(C)CCC[C@@]2(C)[C@H]1C[C@H](O)[C@H]1CC(=O)[C@]3(C)CC[C@]12C3 is 48 µg/mL

Sure, the documented CC100 for CC1(C)CCC[C@@]2(C)[C@H]1CC[C@H]1CC(=O)[C@]3(C)CC[C@]12C3 is 28 µg/mL

====

- assay name: Cytotoxicity against bovine Bon-Fib cells after 48 hrs
- Assay type: cell-based, Bos taurus
- condition info: cattle
// CC100 lookup, one value per entry
Reply with the number and its unit after it.

# count of solved cases: 5
> print(dat)
                                   compound  result.type    result
1  COC(=O)CC(=O)O[C@@H]1C[C@@H]2[C@@H](OC(C)=O)C[C@H]3C(C)(C)CCC[C@]3(C)[C@]23CC[C@]1(C)C3 [METHYL THYRSIFLORIN B ACETATE]        CC100  60 µg/mL
2  COC(=O)CC(=O)O[C@@H]1C[C@@H]2CC[C@H]3C(C)(C)CCC[C@]3(C)[C@]23CC[C@]1(C)C3 [METHYL THYRSIFLORIN A]        CC100  28 µg/mL
3  CC(=O)O[C@H]1C[C@H]2C(C)(C)CCC[C@]2(C)[C@@]23CC[C@](C)(C2)[C@H](OC(C)=O)C[C@H]13 [THYRSIFLORIN C DIACETATE]        CC100  60 µg/mL
4  CC1(C)CCC[C@@]2(C)[C@H]1C[C@H](O)[C@H]1C[C@@H](O)[C@]3(C)CC[C@]12C3 [THYRSIFLORIN C]        CC100  60 µg/mL
5  CC1(C)CCC[C@@]2(C)[C@H]1CC[C@H]1CC(=O)[C@]3(C)CC[C@]12C3        CC100  24 µg/mL

Sure, the documented CC100 for CC1(C)CCC[C@@]2(C)[C@H]1C[C@@H](O)C1=CC(=O)[C@]3(C)CC[C@]12C3 is 10 µg/mL
